Measurement protocol: Stability of 177Lu labelled compound in human serum assessed as parent compound remaining at 37 degC after 24 hrs by RP-HPLC analysis
Assay type: ADME, cell-free
Assay setup: read-out: Stability
Recorded endpoint: remaining at 24 h (%)
Write the value in % as a bare number.

{"Compound": "Cc1cc(O)cc(C)c1C[C@H](NC(=O)[C@@H]1CCCN1C(=O)[C@H](CCCNC(=N)N)NC(=O)[C@H](CCCNC(=N)N)N(C)C(=O)[C@@H]1CCCN1C(=O)[C@H](CCCCN)NC(=O)[C@@H](CO)NC(=O)[C@@H](CO)NC(=O)[C@@H](CO)NC(=O)[C@H](Cc1cn(CCNC(=O)[C@H](CCCNC(=N)N)NC(=O)[C@H](CC(C)C)NC(=O)C2OC2C(=O)O)nn1)NC(=O)CN1CCN(CC(=O)O)CCN(CC(=O)O)CCN(CC(=O)O)CC1)C(=O)N[C@H](C(=O)N[C@@H](CC(C)C)C(=O)O)C(C)(C)C (some centres not stated)", "Recorded endpoint": "remaining at 24 h", "Units label": "%", "Quantitative result": 36.9}

From here, focus on the item given below.
Q. Query (compound): "Cc1cc(O)cc(C)c1C[C@H](NC(=O)[C@@H]1CCCN1C(=O)[C@H](CCCNC(=N)N)NC(=O)[C@H](CCCNC(=N)N)N(C)C(=O)[C@@H]1CCCN1C(=O)[C@H](CCCCN)NC(=O)[C@@H](CO)NC(=O)[C@@H](CO)NC(=O)[C@@H](CO)NC(=O)[C@H](Cc1cn(CCNC(=O)[C@H](CCCNC(=N)N)NC(=O)[C@H](CC(C)C)NC(=O)CCC(=O)O)nn1)NC(=O)CN1CCN(CC(=O)O)CCN(CC(=O)O)CCN(CC(=O)O)CC1)C(=O)N[C@H](C(=O)N[C@@H](CC(C)C)C(=O)O)C(C)(C)C" ; field requested: remaining at 24 h
A. 49.5

---

Measurement protocol: Octanol-PBS buffer distribution coefficient, log D of 177Lu labelled compound at pH 7.4 by radiometric analysis
Format: physicochemical
Reported logD by item:
// no unit string in output, number only

Q. May I ask what logD has been recorded for Cc1cc(O)cc(C)c1C[C@H](NC(=O)[C@@H]1CCCN1C(=O)[C@H](CCCNC(=N)N)NC(=O)[C@H](CCCNC(=N)N)N(C)C(=O)[C@@H]1CCCN1C(=O)[C@H](CCCCN)NC(=O)[C@@H](CO)NC(=O)[C@@H](CO)NC(=O)[C@@H](CO)NC(=O)[C@H](Cc1cn(CCNC(=O)[C@H](CCCNC(=N)N)NC(=O)[C@H](CC(C)C)NC(=O)C2OC2C(=O)O)nn1)NC(=O)CN1CCN(CC(=O)O)CCN(CC(=O)O)CCN(CC(=O)O)CC1)C(=O)N[C@H](C(=O)N[C@@H](CC(C)C)C(=O)O)C(C)(C)C (some centres not stated) ?
A. -3.78

Q. // repeat for "Cc1cc(O)cc(C)c1C[C@H](NC(=O)[C@@H]1CCCN1C(=O)[C@H](CCCNC(=N)N)NC(=O)[C@H](CCCNC(=N)N)N(C)C(=O)[C@@H]1CCCN1C(=O)[C@H](CCCCN)NC(=O)[C@@H](CO)NC(=O)[C@@H](CO)NC(=O)[C@@H](CO)NC(=O)[C@H](Cc1cn(CCNC(=O)[C@H](CCCNC(=N)N)NC(=O)[C@H](CC(C)C)NC(=O)CCC(=O)O)nn1)NC(=O)CN1CCN(CC(=O)O)CCN(CC(=O)O)CCN(CC(=O)O)CC1)C(=O)N[C@H](C(=O)N[C@@H](CC(C)C)C(=O)O)C(C)(C)C" and report
A. -3.51

Data credit: ChEMBL document CHEMBL4350999
